- Test system: Swiss male mice
- assay procedure: Analgesic activity, phenylquinone test (Siegmund et al), oral administration in Swiss male mice
- Type: in vivo
- run parameters: Mus musculus
- Description: (a) Analgesic activity.-Analgesic activity has been determined in Swiss male mice by orally administering the compounds according to the phenylquinone test, as described by Siegmund et al (Proc. Soc.Exp.Biol.Med., 95, 729, 1957). From the analgesia values obtained, the ED50 for each compound has been calculated.
recorded endpoint: ED50

compound	recorded endpoint	result
C[C@H](O)[C@@H](c1ccc2c(c1)OCO2)N1CCOCC1 (relative stereo) [Example 2]	ED50	25.7 mg/kg
Cc1c(N(C)C)c(=O)n(-c2ccccc2)n1C [Aminophenazone, reference compound]	ED50	23.4 mg/kg
C[C@H](O)[C@@H](c1ccc2c(c1)OCO2)N1CCCCC1 (relative stereo) [Example 5]	ED50	33.3 mg/kg
C[C@H](O)[C@@H](c1ccc2c(c1)OCO2)N1CCCCCC1 (relative stereo) [Example 8]	ED50	45.5 mg/kg
CC(=O)Oc1ccccc1C(=O)O [Acetylsalicylic acid, reference compound]	ED50	72 mg/kg
COc1ccc2c3c1O[C@H]1[C@@H](O)C=C[C@H]4[C@@H](C2)N(C)CC[C@@]341 [Codeine, reference compound]	ED50	1.97 mg/kg
C[C@H](O)[C@@H](c1ccc2c(c1)OCO2)N1CCCC1 (relative stereo) [Example 7]	ED50	140 mg/kg
CCN(CC)[C@H](c1ccc2c(c1)OCO2)[C@H](C)O (relative stereo) [Example 4]	ED50	107 mg/kg
C[C@H](O)[C@@H](c1ccc2c(c1)OCO2)N(C)C1CCCCC1 (relative stereo) [Example 11]	ED50	29.8 mg/kg
C[C@H](O)[C@H](NC1CC1)c1ccc2c(c1)OCO2 (relative stereo) [Example 12]	ED50	62.3 mg/kg
C[C@H](O)[C@@H](c1ccc2c(c1)OCO2)N1CCC(O)CC1 (relative stereo) [Example 6]	ED50	109 mg/kg
C[C@H](O)[C@H](NCc1ccccc1)c1ccc2c(c1)OCO2 (relative stereo) [Example 9]	ED50	28.8 mg/kg
C[C@H](O)[C@@H](c1ccc2c(c1)OCO2)N(C)Cc1ccccc1 (relative stereo) [Example 10]	ED50	33.8 mg/kg
C[C@H](O)[C@H](NC1CCCCC1)c1ccc2c(c1)OCO2 (relative stereo) [Example 13]	ED50	31.7 mg/kg
C[C@H](O)[C@@H](c1ccc2c(c1)OCO2)N1CCN(Cc2ccccc2)CC1 (relative stereo) [Example 3]	ED50	29.7 mg/kg
